src = patent US20230340090A1

- target.under.test: T1, TP-24 peptide (human)
- T1 sequence (peptide, biotinylated): REFFSQYGDVMDVFI
- protocol.description: indirect ELISA, biotinylated 15-mer on streptavidin plate
observation.type: OD (O.D. (405 nm))
Answer using only a numeral; do not append any unit.

## Input Give recorded OD (O.D. (405 nm)). ACI-7062-412E12-Ab1 (antibody, IgG1, V domains shown) VH: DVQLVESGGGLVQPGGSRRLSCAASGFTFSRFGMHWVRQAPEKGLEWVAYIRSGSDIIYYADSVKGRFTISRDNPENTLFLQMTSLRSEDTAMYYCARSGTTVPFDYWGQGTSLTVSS VL: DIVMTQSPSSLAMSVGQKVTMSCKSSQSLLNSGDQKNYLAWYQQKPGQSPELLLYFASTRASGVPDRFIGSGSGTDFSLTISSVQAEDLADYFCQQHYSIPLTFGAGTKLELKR
## Output 3.2
